# tgt: Thymidylate synthase (Escherichia coli (strain K12), UniProt P0A884)
# Sequence (P0A884 whole entry): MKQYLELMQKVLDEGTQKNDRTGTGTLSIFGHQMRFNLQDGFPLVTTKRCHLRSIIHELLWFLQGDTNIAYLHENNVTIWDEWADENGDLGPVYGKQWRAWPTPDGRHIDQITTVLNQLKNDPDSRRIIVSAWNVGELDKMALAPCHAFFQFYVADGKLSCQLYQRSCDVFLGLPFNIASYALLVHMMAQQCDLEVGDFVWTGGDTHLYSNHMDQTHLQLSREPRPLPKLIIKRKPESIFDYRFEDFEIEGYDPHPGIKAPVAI
# experimental.details: Inhibition Assay
Reported Ki values follow for various compounds

| smiles.record | units | bound.operator | Ki |
| --- | --- | --- | --- |
| CN(C)c1cccc2c(S(=O)(=O)Oc3ccc4c(c3)CN(S(=O)(=O)c3cccc5c(N(C)C)cccc35)[C@H](C(=O)O)C4)cccc12 | µM | = | 13 |
| CN(C)c1cccc2c(S(=O)(=O)Oc3ccc4c(c3)CN(C(=O)c3ccc5ccccc5c3)[C@H](C(=O)O)C4)cccc12 | µM | = | 1530 |
| CN(C)c1cccc2c(S(=O)(=O)N[C@@H](Cc3ccc(OS(=O)(=O)c4cccc5c(N(C)C)cccc45)cc3)C(=O)O)cccc12 | µM | = | 1.8 |
| CN(C)c1cccc2c(S(=O)(=O)Oc3ccc4c(c3)CN(S(=O)(=O)c3cc(Br)c(Br)s3)[C@H](C(=O)O)C4)cccc12 | µM | = | 60 |
| CN(C)c1cccc2c(S(=O)(=O)Oc3c(I)cc4c(c3I)CN(S(=O)(=O)c3cccc5c(N(C)C)cccc35)[C@H](C(=O)O)C4)cccc12 | µM | = | 7 |
| CN(C)c1cccc2c(S(=O)(=O)Oc3ccc4c(c3)CN(S(=O)(=O)c3ccc([N+](=O)[O-])cc3)[C@H](C(=O)O)C4)cccc12 | µM | = | 23 |
| CN(C)c1cccc2c(S(=O)(=O)Oc3ccc(C[C@H](NC(=O)c4ccc([N+](=O)[O-])cc4)C(=O)O)cc3)cccc12 | µM | > | 1330 |
| CN(C)c1cccc2c(S(=O)(=O)Oc3ccc(C[C@H](NS(=O)(=O)c4cc(Br)c(Br)s4)C(=O)O)cc3)cccc12 | µM | > | 1330 |
| CN(C)c1cccc2c(S(=O)(=O)N[C@@H](Cc3cc(I)c(OS(=O)(=O)c4cccc5c(N(C)C)cccc45)c(I)c3)C(=O)O)cccc12 | µM | = | 8.2 |
| CN(C)c1cccc2c(S(=O)(=O)Oc3ccc4c(c3)CN(S(=O)(=O)Cc3ccccc3)[C@H](C(=O)O)C4)cccc12 | µM | = | 194 |
| CN(C)c1cccc2c(S(=O)(=O)Oc3ccc(C[C@H](NS(=O)(=O)c4ccc(C(F)(F)F)cc4[N+](=O)[O-])C(=O)O)cc3)cccc12 | µM | > | 636 |
| CN(C)c1cccc2c(S(=O)(=O)Oc3ccc(C[C@H](NC(=O)c4ccc5ccccc5c4)C(=O)O)cc3)cccc12 | µM | > | 1470 |
